molecular target: Galectin-3 (Homo sapiens, UniProt P17931); experiment: SPR (BiacoreT200) binding affinity; details: 25° C., read-out: hGal-3 KD
Sequence (P17931 whole entry): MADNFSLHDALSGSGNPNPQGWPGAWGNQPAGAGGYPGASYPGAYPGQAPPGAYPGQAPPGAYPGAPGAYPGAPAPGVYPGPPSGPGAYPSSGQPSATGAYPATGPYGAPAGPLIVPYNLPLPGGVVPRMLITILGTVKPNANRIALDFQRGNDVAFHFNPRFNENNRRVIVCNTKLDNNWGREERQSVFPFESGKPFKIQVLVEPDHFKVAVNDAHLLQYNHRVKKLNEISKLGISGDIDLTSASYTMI
RESULT TYPE: pKd
Note on units: pKd is unitless, being -log10 of a concentration expressed in mol/L.

QUERY: Which pKd value is on record for 12G5.D7: murine anti-Gal3 antibody (antibody, V domains shown, VH of 12G5.D7; VL of 12G5.D7, murine anti-Gal3 antibody) VH: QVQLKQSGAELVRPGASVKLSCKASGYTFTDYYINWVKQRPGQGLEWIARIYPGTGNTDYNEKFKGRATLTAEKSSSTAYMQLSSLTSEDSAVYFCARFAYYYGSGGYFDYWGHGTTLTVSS VL: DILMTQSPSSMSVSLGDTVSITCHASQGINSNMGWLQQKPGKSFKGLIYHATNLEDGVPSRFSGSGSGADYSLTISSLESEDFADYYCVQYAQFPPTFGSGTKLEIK ?
RESULT: 8.72

QUERY: What value of measured pKd is listed for 15F10.2D6: murine anti-Gal3 antibody (antibody, V domains shown) VH: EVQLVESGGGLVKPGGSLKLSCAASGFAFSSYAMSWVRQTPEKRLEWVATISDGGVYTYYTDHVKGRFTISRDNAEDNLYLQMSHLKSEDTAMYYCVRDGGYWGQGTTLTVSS VL: DVLMTQTPLSLPVSLGDQASISCRSSQSIVHNNGNTYLEWYLQKPGQSPKLLIYKVSNRFSGVPDRFSGSGSGTDFTLKISRVEAEDLGVYYCFQGSHVPLTFGGGTKLELK ?
RESULT: 8.69

QUERY: Given the molecule 2D10.2B2: murine anti-Gal3 antibody (antibody, V domains shown) VH: QVQLQQSGPELVKPGASVKISCKASGYTFTDYYINWVKQRPGQGLEWIGWIYPGSNDTKYNEKFKGKATLTVDTSSSTAYMQLGSLTSEDSAVYFCANYFGCSGWFFDVWGTGTTVTVSS VL: DIVMTQAAFSNPVTLGTSASISCRSSKSLLHSDGITYLYWYLQRPGQSPQLLIYRMSNLASGVPDRFSGSGSGTDFTLRISRVEAEDVGVYYCAQMIEFPLTFGAGTILELK , what is its reported pKd?
RESULT: 9.12

QUERY: Quick one: pKd of 24D12.2H9: murine anti-Gal3 antibody (antibody, V domains shown, VH of 24D12.2H9; VL of 24D12.2H9, murine anti-Gal3 antibody) VH: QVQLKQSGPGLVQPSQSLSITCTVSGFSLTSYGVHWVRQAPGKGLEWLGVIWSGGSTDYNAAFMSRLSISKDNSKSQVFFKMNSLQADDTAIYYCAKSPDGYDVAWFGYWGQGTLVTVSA VL: DIVMTQSHKFMSTSVGDRVSITCKASQDVRTAVAWYQQKPGQSPKLLIYWASTRHTGVPDRFTGSGSGTDFTLTLSNVQSEDLADYFCQQYSSYPWTFGGGTKLEIK ?
RESULT: 8.38

QUERY: What pKd value was documented for this molecule, 13G4.2F8: murine anti-Gal3 antibody (antibody, V domains shown) VH: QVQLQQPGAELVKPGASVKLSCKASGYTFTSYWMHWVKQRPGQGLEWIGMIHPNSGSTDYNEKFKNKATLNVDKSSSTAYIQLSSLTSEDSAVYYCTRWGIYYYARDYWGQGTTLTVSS VL: DIVMTQSQKFMSTSVGERVSITCKASQNVGTNVAWYQQKAGQSLELLIYGASNRHTGVPDRFTGSGSGTDFTLTITNVQSEDMTNYFCEQYSNFPLTFGAGTKLELK ?
RESULT: 8.60
